Ref: ChEMBL document CHEMBL6134783

assay: Neurotoxicity against non-differentiated human SH-SY5Y cells assessed as reduction in cell viability at 100 uM measured after 24 hrs by MTT assay relative to control; format: toxicity, cell-based
READOUT: Activity (%)

compound_structure=COC(=O)CC[C@H](NC(=O)[C@@H]1[C@H]2CC[C@H](C2)N1C(=O)CN)C(=O)NC12CC3CC(CC(C3)C1)C2.O=C(O)C(F)(F)F readout=Activity unit_annotation=% measured_number=93.91
compound_structure=COC(=O)CC[C@H](NC(=O)[C@@H]1[C@H]2CC[C@H](C2)N1C(=O)CN)C(=O)N[C@@H]1CCc2ccccc21.O=C(O)C(F)(F)F readout=Activity unit_annotation=% measured_number=96.04
compound_structure=COC(=O)[C@H](CCC(=O)NC12CC3CC(CC(C3)C1)C2)NC(=O)[C@@H]1[C@H]2CC[C@H](C2)N1C(=O)CNC(=O)OC(C)(C)C readout=Activity unit_annotation=% measured_number=89.94
compound_structure=COC(=O)[C@H](CCC(=O)NC12CC3CC(C)(CC(C)(C3)C1)C2)NC(=O)[C@@H]1[C@H]2CC[C@H](C2)N1C(=O)CN(C)C readout=Activity unit_annotation=% measured_number=32.77
compound_structure=COC(=O)[C@H](CCC(=O)N[C@@H]1CCc2ccccc21)NC(=O)[C@@H]1[C@H]2CC[C@H](C2)N1C(=O)CNC(=O)OC(C)(C)C readout=Activity unit_annotation=% measured_number=32.77
compound_structure=COC(=O)CC[C@H](NC(=O)[C@@H]1[C@H]2CC[C@H](C2)N1C(=O)CNC(=O)OC(C)(C)C)C(=O)NC12CC3CC(CC(C3)C1)C2 readout=Activity unit_annotation=% measured_number=90.79

###

assay: Neurotoxicity against retinoic acid/TPA differentiated human SH-SY5Y cells assessed as reduction in cell viability at 100 uM measured after 48 hrs by MTT assay relative to control; type: toxicity, cell-based
Below: a set of entries, each annotated with reported Cell viability (% of control).
READOUT: Cell viability (% of control) (%)

compound_structure=COC(=O)CC[C@H](NC(=O)[C@@H]1[C@H]2CC[C@H](C2)N1C(=O)CN(C)C)C(=O)N[C@@H]1CCc2ccccc21 measured_number=100.56
compound_structure=COC(=O)CC[C@H](NC(=O)[C@@H]1[C@H]2CC[C@H](C2)N1C(=O)CN)C(=O)NC12CC3CC(CC(C3)C1)C2.O=C(O)C(F)(F)F measured_number=102.46
compound_structure=COC(=O)[C@H](CCC(=O)NC12CC3CC(C)(CC(C)(C3)C1)C2)NC(=O)[C@@H]1[C@H]2CC[C@H](C2)N1C(=O)CN(C)C measured_number=9.07

###

Below: a set of entries, each annotated with reported Cell viability (% of control).
assay: Neurotoxicity against retinoic acid/TPA differentiated human SH-SY5Y cells assessed as reduction in cell viability at 100 uM measured after 48 hrs by MTT assay relative to control; assay type: toxicity, cell-based
READOUT: Cell viability (% of control) (%)

compound_structure=COC(=O)CC[C@H](NC(=O)[C@@H]1[C@H]2CC[C@H](C2)N1C(=O)CN)C(=O)N[C@@H]1CCc2ccccc21.O=C(O)C(F)(F)F readout="Cell viability (% of control)" measured_number=98.48
compound_structure=COC(=O)[C@H](CCC(=O)N[C@@H]1CCc2ccccc21)NC(=O)[C@@H]1[C@H]2CC[C@H](C2)N1C(=O)CN(C)C readout="Cell viability (% of control)" measured_number=96.47
compound_structure=COC(=O)[C@H](CCC(=O)NC12CC3CC(CC(C3)C1)C2)NC(=O)[C@@H]1[C@H]2CC[C@H](C2)N1C(=O)CN.O=C(O)C(F)(F)F readout="Cell viability (% of control)" measured_number=96.82
compound_structure=COC(=O)[C@H](CCC(=O)N[C@@H]1CCc2ccccc21)NC(=O)[C@@H]1[C@H]2CC[C@H](C2)N1C(=O)CNC(=O)OC(C)(C)C readout="Cell viability (% of control)" measured_number=94.07
compound_structure=COC(=O)CC[C@H](NC(=O)[C@@H]1[C@H]2CC[C@H](C2)N1C(=O)CNC(=O)OC(C)(C)C)C(=O)NC12CC3CC(C)(CC(C)(C3)C1)C2 readout="Cell viability (% of control)" measured_number=98.1

###

test system: SH-SY5Y; experiment: Neuroprotective activity in amyloid beta (25 to 35)-induced non-differentiated human SH-SY5Y cells assessed as reduction in protein aggregation at 100 uM incubated for 24 hrs by ThT fluorescence assay relative to control; assay type: functional
Activity calls are given as the source filed them. The rule behind the calls is not given here.
Outcomes: 1 (yes) for active, 0 (no) for inactive

compound_structure=COC(=O)[C@H](CCC(=O)N[C@@H]1CCc2ccccc21)NC(=O)[C@@H]1[C@H]2CC[C@H](C2)N1C(=O)CN(C)C group="0 (no)"
compound_structure=COC(=O)CC[C@H](NC(=O)[C@@H]1CCCN1C(=O)CN)C(=O)N[C@@H]1CCc2ccccc21 group="1 (yes)"
compound_structure=COC(=O)CC[C@H](NC(=O)[C@@H]1[C@H]2CC[C@H](C2)N1C(=O)CN)C(=O)N[C@@H]1CCc2ccccc21.O=C(O)C(F)(F)F group="0 (no)"
compound_structure=COC(=O)[C@H](CCC(=O)NC12CC3CC(CC(C3)C1)C2)NC(=O)[C@@H]1CCCN1C(=O)CN group="0 (no)"
compound_structure=COC(=O)CC[C@H](NC(=O)[C@@H]1[C@H]2CC[C@H](C2)N1C(=O)CNC(=O)OC(C)(C)C)C(=O)N[C@@H]1CCc2ccccc21 group="0 (no)"

###

tested on: SH-SY5Y; test: Neuroprotective activity against PQ-induced cytotoxicity in differentiated human SH-SY5Y cells assessed as NR uptake at 100 uM incubated for 48 hrs by NR uptake assay (reference value: 36.78 +/- 9.57%); assay type: functional
READOUT: Activity (%)

compound_structure=COC(=O)CC[C@H](NC(=O)[C@@H]1[C@H]2CC[C@H](C2)N1C(=O)CN)C(=O)N[C@@H]1CCc2ccccc21.O=C(O)C(F)(F)F target_desc=SH-SY5Y unit_annotation=% measured_number=40.76
compound_structure=N[C@@H]1CCc2ccccc21 target_desc=SH-SY5Y unit_annotation=% measured_number=22.95
compound_structure=COC(=O)[C@H](CCC(=O)NC12CC3CC(CC(C3)C1)C2)NC(=O)[C@@H]1[C@H]2CC[C@H](C2)N1C(=O)CN.O=C(O)C(F)(F)F target_desc=SH-SY5Y unit_annotation=% measured_number=40.94
compound_structure=NCC(=O)N1CCC[C@H]1C(=O)N[C@@H](CCC(=O)O)C(=O)O target_desc=SH-SY5Y unit_annotation=% measured_number=36.33
